- SYSTEM UNDER TEST: human truncated cGAS enzyme (147-522 human cGAS) (Homo sapiens (Human), UniProt Q8N884)
- Sequence (Q8N884 147-522): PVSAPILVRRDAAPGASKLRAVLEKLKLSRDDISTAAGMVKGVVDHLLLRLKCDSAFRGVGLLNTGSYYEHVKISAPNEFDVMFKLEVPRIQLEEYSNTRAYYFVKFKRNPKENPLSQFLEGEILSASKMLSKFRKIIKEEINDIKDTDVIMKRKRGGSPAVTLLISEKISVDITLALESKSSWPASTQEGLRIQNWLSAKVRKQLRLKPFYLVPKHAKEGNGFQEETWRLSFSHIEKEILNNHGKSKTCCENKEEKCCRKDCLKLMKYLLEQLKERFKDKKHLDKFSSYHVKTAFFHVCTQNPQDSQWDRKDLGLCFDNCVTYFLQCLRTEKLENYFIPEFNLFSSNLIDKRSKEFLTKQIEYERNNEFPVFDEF
- EXPERIMENT SUMMARY: Quantification of cGAS protein inhibition (cGAMP formation, LC-MS/MS)
- CONDITION DETAILS: 30 nM enzyme, 45 bp dsDNA (ISD) 5 μM, GTP and ATP 0.5 mM each, 1 h at room temperature; potential mixture of co-existing tautomers and/or racemates
MEASURED ATTRIBUTE: IC50 (nM)

[[record]]
sample_smiles = "COc1nc2c(-c3cn[nH]c3)c(-c3nnc(C(F)(F)F)[nH]3)n(C)c2cc1Cl"
system_under_test = "human truncated cGAS enzyme (147-522 human cGAS) (Homo sapiens (Human), UniProt Q8N884)"
measured_attribute = "IC50"
reported_result = 76

[[record]]
sample_smiles = "COc1nc2c(-c3cn[nH]c3)c(-c3nnc(C(C)(F)F)[nH]3)[nH]c2cc1Cl"
system_under_test = "human truncated cGAS enzyme (147-522 human cGAS) (Homo sapiens (Human), UniProt Q8N884)"
measured_attribute = "IC50"
reported_result = 32

[[record]]
sample_smiles = "COc1nc2c(-c3cn[nH]c3)c(-c3nnc(F)[nH]3)n(C)c2cc1Cl"
system_under_test = "human truncated cGAS enzyme (147-522 human cGAS) (Homo sapiens (Human), UniProt Q8N884)"
measured_attribute = "IC50"
reported_result = 267


----------
- SYSTEM UNDER TEST: human truncated cGAS enzyme (147-522 human cGAS) (Homo sapiens (Human))
- EXPERIMENT SUMMARY: Quantification of cGAS protein inhibition (cGAMP formation, LC-MS/MS)
- CONDITION DETAILS: 30 nM enzyme, 45 bp dsDNA (ISD) 5 μM, GTP and ATP 0.5 mM each, 1 h at room temperature; potential mixture of co-existing tautomers and/or racemates
Bucketed by reported IC50, buckets being L = under 100 nM, M = from 100 nM up to 300 nM, H = 300 nM and over

[[record]]
compound = "COCC(c1nnc(-c2c(-c3cn[nH]c3)c3nc(OC)c(Cl)cc3n2C)[nH]1)N(C)C (centres unmarked)"
discrete_label = "M"

[[record]]
compound = "COc1nc2c(-c3cn[nH]c3)c(-c3nnc(C(=O)N(C)C)[nH]3)[nH]c2cc1Cl"
discrete_label = "L"

[[record]]
compound = "COc1nc2c(-n3ccnc3)c(-c3nnc(C(=O)N(C)C)[nH]3)n(C)c2cc1Cl"
discrete_label = "M"

[[record]]
compound = "COc1nc2c(-n3ccnc3)c(-c3nnc(C(OC)C(F)(F)F)[nH]3)n(C)c2cc1Cl (centres unmarked)"
discrete_label = "M"

[[record]]
compound = "COc1nc2c(-c3cn[nH]c3)c(-c3nnc[nH]3)n(C)c2cc1Cl"
discrete_label = "H"

[[record]]
compound = "COCC(c1nnc(-c2c(-n3ccnc3)c3nc(OC)c(Cl)cc3n2C)[nH]1)N(C)C (centres unmarked)"
discrete_label = "H"

[[record]]
compound = "Cn1c(-c2nnc(C(F)(F)F)[nH]2)c(-c2cn[nH]c2)c2nc(O)c(Cl)cc21"
discrete_label = "H"

[[record]]
compound = "COc1nc2c(-n3ccnc3)c(-c3nnc(C(F)(F)F)[nH]3)[nH]c2cc1Cl"
discrete_label = "L"

[[record]]
compound = "COCC(F)(F)c1nnc(-c2c(-n3ccnc3)c3nc(OC)c(Cl)cc3n2C)[nH]1"
discrete_label = "M"

[[record]]
compound = "COc1nc2c(-n3ccnc3)c(-c3nnc(F)[nH]3)n(C)c2cc1Cl"
discrete_label = "H"

[[record]]
compound = "COc1nc2c(-c3cn[nH]c3)c(-c3nnc(C(C)=O)[nH]3)[nH]c2cc1Cl"
discrete_label = "L"

[[record]]
compound = "COc1nc2c(-c3cn[nH]c3)c(-c3nnc(C(C)=O)[nH]3)n(C)c2cc1Cl"
discrete_label = "L"

[[record]]
compound = "COc1nc2c(-n3ccnc3)c(-c3nnc(C(F)(F)F)[nH]3)n(C)c2cc1Cl"
discrete_label = "H"


----------
- SYSTEM UNDER TEST: human truncated cGAS enzyme (147-522 human cGAS) (Homo sapiens (Human), UniProt Q8N884)
- EXPERIMENT SUMMARY: Quantification of cGAS protein inhibition (cGAMP formation, LC-MS/MS)
- CONDITION DETAILS: 30 nM enzyme, 45 bp dsDNA (ISD) 5 μM, GTP and ATP 0.5 mM each, 1 h at room temperature; potential mixture of co-existing tautomers and/or racemates
pIC50: −log10 of the molar value.
Attribute: pIC50
MEASURED ATTRIBUTE: pIC50

[[record]]
molecule = "COCC(O)c1nnc(-c2c(-n3ccnc3)c3nc(OC)c(Cl)cc3n2C)[nH]1 (stereo not shown)"
reported_result = 6.53

[[record]]
molecule = "COc1nc2c(-n3ccnc3)c(-c3nnc(/C(C)=N/OCCO)[nH]3)n(C)c2cc1Cl"
reported_result = 7.00

[[record]]
molecule = "COc1nc2c(-n3ccnc3)c(-c3nnc(CN(C)C)[nH]3)n(C)c2cc1Cl"
reported_result = 6.51

[[record]]
molecule = "COc1nc2c(-c3cn[nH]c3)c(-c3nnc(C(=O)N(C)C)[nH]3)n(C)c2cc1Cl"
reported_result = 7.01


Data credit: patent US20240051954A1
